Measured values drawn from patent US20230278972A1 for this set.

system: soybean (Glycine max); experiment: Test A1 postemergence, soybean; assay type: in vivo; settings: Postemergence, 125 g ai/ha; 0 to 100 scale
Exam item: assign true (1) to entries whose Plant response rating, Soybean is below 60 and false (0) to entries at or above 60. Note that a value of exactly 60 receives false (0).

Worked examples, 3 compounds total:
                                   compound  categorylabel
0  Cc1cc(C)c(N(COC(=O)C(C)(C)C)S(=O)(=O)C(F)(F)F)cc1C1=NOC2CCCCCC12 (single isomer, unassigned)       true (1)
1  COC1CCN(C(=O)c2cc(N(COC(=O)C(C)(C)C)S(=O)(=O)C(F)(F)F)c(C)c(C)c2C)CC1      false (0)
2  CCC1ON=C(c2cc(N(COC(=O)C(C)(C)C)S(=O)(=O)C(F)(F)F)c(C)cc2C)C1CC (centres unmarked) [Compound 344]       true (1)

Lookup: I'd appreciate it if you could check whether CCc1cc(C)c(C2=NOC3(CCCC3)C2)cc1NS(=O)(=O)C(F)(F)F has Plant response rating, Soybean smaller than 60.
Found: true (1)

Lookup: I'd appreciate it if you could check whether CCCCOC1CC(c2cc(NS(=O)(=O)C(F)(F)F)c(C)cc2C)=NO1 (centres unmarked) has Plant response rating, Soybean smaller than 60.
Found: true (1)

Lookup: I'd appreciate it if you could check whether COC1CCCN(C(=O)c2cc(NS(=O)(=O)C(F)(F)F)c(Cl)c(F)c2C)C1 (centres unmarked) has Plant response rating, Soybean smaller than 60.
Found: true (1)

Lookup: I'd appreciate it if you could check whether Cc1c(C(=O)N2CCC(C)CC2)cc(N(COC(=O)C(C)(C)C)S(=O)(=O)C(F)(F)F)c(C)c1C has Plant response rating, Soybean smaller than 60.
Found: false (0)

Lookup: I'd appreciate it if you could check whether Cc1c(NS(=O)(=O)C(F)(F)F)cc(C(=O)N2CCC(F)CC2)c(C)c1C has Plant response rating, Soybean smaller than 60.
Found: false (0)

Lookup: I'd appreciate it if you could check whether Cc1c(C(=O)N(C)C)cc(NS(=O)(=O)C(F)(F)F)c(Cl)c1F has Plant response rating, Soybean smaller than 60.
Found: false (0)

Lookup: I'd appreciate it if you could check whether Cc1cc(F)c(NS(=O)(=O)C(F)(F)F)cc1C1=NOC2(CCCC2)C1 has Plant response rating, Soybean smaller than 60.
Found: true (1)

Lookup: I'd appreciate it if you could check whether C#CCN(C)C(=O)c1cc(NS(=O)(=O)C(F)(F)F)c(Cl)c(F)c1C has Plant response rating, Soybean smaller than 60.
Found: false (0)

Lookup: I'd appreciate it if you could check whether Cc1c(C(=O)N2CCC(F)CC2)cc(N(COC(=O)C(C)(C)C)S(=O)(=O)C(F)(F)F)c(C)c1C has Plant response rating, Soybean smaller than 60.
Found: false (0)

----------
test system: kochia (Bassia scoparia); test: Test A preemergence, kochia; format: in vivo; conditions: Preemergence, 125 g ai/ha; visual injury on 0 to 100 scale (0 no effect, 100 complete control), approximately 10 days
Kochia plant response rating: recorded values
Output: the number by itself.

Record excerpt, results attached:
>>> df
                                   molecule  testvalue
0  COc1cnn(-c2cc(N(S(=O)(=O)C(F)(F)F)S(=O)(=O)C(F)(F)F)c(C)cc2C)c(=O)c1OC         80
1  Cc1c(NS(=O)(=O)C(F)(F)F)cc(C(=O)N2CC(C)OC(C)C2)c(C)c1F (stereo not shown)         90
2  Cc1cc(Cl)c(C2=NOC3(CCCC3)C2)cc1N(S(=O)(=O)C(F)(F)F)S(=O)(=O)C(F)(F)F         20
3  COC1CCN(C(=O)c2cc(NS(=O)(=O)C(F)(F)F)c(C)c(F)c2C)CC1         80
4  CCn1c(=O)c(-c2cc(NS(=O)(=O)C(F)(F)F)c(C)cc2C)cn(C)c1=O         80
5  Cc1cc(C)c(N(S(=O)(=O)C(F)(F)F)S(=O)(=O)C(F)(F)F)cc1-c1cc(Br)nn(C)c1=O          0

Next item in the queue.
Lookup: I would be grateful if you could share the reported Kochia plant response rating for COc1cc(-c2cc(N(S(=O)(=O)C(F)(F)F)S(=O)(=O)C(F)(F)F)c(C)cc2C)c(=O)n(C)n1 .
Found: 0

----------
tested on: kochia (Bassia scoparia); experiment: Test A1 postemergence, kochia; format: in vivo; conditions: Postemergence, 31 g ai/ha; 0 to 100 scale (0 no effect, 100 complete control); 10 days
Plant response rating, Kochia vs 10: at or above is Yes, below is No.

                                   compound  categorylabel
0  COC(=O)OCN(c1cc(C2=NOC3CCCC23)c(C)cc1C)S(=O)(=O)C(F)(F)F (centres unmarked)            Yes
1  Cc1c(NS(=O)(=O)C(F)(F)F)cc(C(=O)N2CCSCC2)c(C)c1C            Yes
2  Cc1c(NS(=O)(=O)C(F)(F)F)cc(C(=O)N2CCCCC2)c(C)c1C            Yes
3  Cc1c(C(=O)N2C[C@@H](C)O[C@@H](C)C2)cc(N(COC(=O)C(C)(C)C)S(=O)(=O)C(F)(F)F)c(C)c1C             No
4  Cc1c(NS(=O)(=O)C(F)(F)F)cc(C(=O)N2CCC(F)CC2)c(C)c1C             No

Lookup: hey, is Plant response rating, Kochia for this one >= 10? Cc1cc(C)c(C2=NOC3COCC23)cc1NS(=O)(=O)C(F)(F)F (centres unmarked)
Found: No

Lookup: hey, is Plant response rating, Kochia for this one >= 10? CCOC(=O)N(c1cc(C(=O)N2CCSCC2)c(C)c(C)c1C)S(=O)(=O)C(F)(F)F
Found: Yes

Lookup: hey, is Plant response rating, Kochia for this one >= 10? CCC1ON=C(c2cc(N(C(=O)OCC(C)C)S(=O)(=O)C(F)(F)F)c(C)cc2C)C1CC (centres unmarked)
Found: Yes

Lookup: hey, is Plant response rating, Kochia for this one >= 10? Cc1cc(C)c(N(COC(=O)OC(C)C)S(=O)(=O)C(F)(F)F)cc1C1=NOC2CCCC12 (centres unmarked)
Found: Yes

Lookup: hey, is Plant response rating, Kochia for this one >= 10? Cc1cc(C)c(N(COC(=O)C(C)(C)C)S(=O)(=O)C(F)(F)F)cc1C1=NOC2COCC12 (centres unmarked)
Found: No

----------
Plant response rating, Kochia: recorded values
system: kochia (Bassia scoparia); experiment: Test A postemergence, kochia; type: in vivo; conditions: Postemergence, 31 g ai/ha; visual injury on 0 to 100 scale (0 no effect, 100 complete control), approx. 10 days
Output: the number by itself.

                                   compound  testvalue
0  Cc1cc(C)c(C(=O)N2CCCC(F)C2)cc1NS(=O)(=O)C(F)(F)F (stereo not drawn)         20

Lookup: I would be grateful if you could share the reported Plant response rating, Kochia for Cc1cc(C)c(C(=O)N2COC(C)(C)C2)cc1NS(=O)(=O)C(F)(F)F .
Found: 20

Lookup: I would be grateful if you could share the reported Plant response rating, Kochia for CCCCC(=O)OCN(c1cc(C2=NOC3(CCCC3)C2)c(C)cc1C)S(=O)(=O)C(F)(F)F .
Found: 10

Lookup: I would be grateful if you could share the reported Plant response rating, Kochia for Cc1cc(Cl)c(NS(=O)(=O)C(F)(F)F)cc1C(=O)N1CCOCC1(C)C .
Found: 0

Lookup: I would be grateful if you could share the reported Plant response rating, Kochia for Cc1cc(C)c(C(=O)N2CCC(C#N)CC2)cc1NS(=O)(=O)C(F)(F)F .
Found: 10

----------
Plant response rating, Corn: recorded values
system: corn (Zea mays); test: Test A postemergence, corn; assay type: in vivo; conditions: Postemergence, 125 g ai/ha; visual injury approx. 10 days; 0 to 100 scale (0 no effect, 100 complete control)

Record excerpt, results attached:
>>> print(df.to_string())
                                   compound  testvalue
0  COc1cnn(C)c(=O)c1-c1cc(NS(=O)(=O)C(F)(F)F)c(C)cc1C          0
1  Cc1cc(C)c(-c2ccnn(C(C)C)c2=O)cc1NS(=O)(=O)C(F)(F)F          0
2  Cc1cc(F)c(-c2ccnn(C)c2=O)cc1NS(=O)(=O)C(F)(F)F          0

Lookup: I would be grateful if you could share the reported Plant response rating, Corn for Cc1cc(Cl)c(N(S(=O)(=O)C(F)(F)F)S(=O)(=O)C(F)(F)F)cc1-c1cn(C)c(=O)n(C)c1=O .
Found: 20

Lookup: I would be grateful if you could share the reported Plant response rating, Corn for COC(=O)N(c1cc(C(=O)N2CCCC(OC)C2)c(C)cc1C)S(=O)(=O)C(F)(F)F (centres unmarked) .
Found: 0

Lookup: I would be grateful if you could share the reported Plant response rating, Corn for CCCn1nccc(-c2cc(NS(=O)(=O)C(F)(F)F)c(C)cc2C)c1=O .
Found: 20

Lookup: I would be grateful if you could share the reported Plant response rating, Corn for Cc1cc(C)c(-c2cc(Br)nn(C)c2=O)cc1NS(=O)(=O)C(F)(F)F .
Found: 10

Lookup: I would be grateful if you could share the reported Plant response rating, Corn for Cc1cc(C)c(-c2cc(C(C)C)nn(C)c2=O)cc1NS(=O)(=O)C(F)(F)F .
Found: 0

Lookup: I would be grateful if you could share the reported Plant response rating, Corn for Cc1cc(C)c(C2=NOC3(C2)CC(C)(C)CC(C)(C)C3)cc1NS(=O)(=O)C(F)(F)F .
Found: 0

Lookup: I would be grateful if you could share the reported Plant response rating, Corn for Cc1cc(C)c(N(S(=O)(=O)C(F)(F)F)S(=O)(=O)C(F)(F)F)cc1-c1ccnn(C)c1=O .
Found: 0

Lookup: I would be grateful if you could share the reported Plant response rating, Corn for Cc1cc(C)c(C2=NOC3CCCCC23)cc1NS(=O)(=O)C(F)(F)F (centres unmarked) .
Found: 10

Lookup: I would be grateful if you could share the reported Plant response rating, Corn for Cc1cc(Cl)c(NS(=O)(=O)C(F)(F)F)cc1-c1cn(C)c(=O)n(C)c1=O .
Found: 0

Lookup: I would be grateful if you could share the reported Plant response rating, Corn for COC1CCN(C(=O)c2cc(NS(=O)(=O)C(F)(F)F)c(C)c(F)c2C)CC1 .
Found: 0

Lookup: I would be grateful if you could share the reported Plant response rating, Corn for Cc1cc(C(F)(F)F)c(C(=O)N(C)C)cc1NS(=O)(=O)C(F)(F)F .
Found: 10

Lookup: I would be grateful if you could share the reported Plant response rating, Corn for COC1CCCN(C(=O)c2cc(NS(=O)(=O)C(F)(F)F)c(C)cc2C)CC1 (centres unmarked) .
Found: 30

Lookup: I would be grateful if you could share the reported Plant response rating, Corn for CSc1cc(-c2cc(NS(=O)(=O)C(F)(F)F)c(C)cc2C)c(=O)n(C)n1 .
Found: 0

Lookup: I would be grateful if you could share the reported Plant response rating, Corn for Cc1ccc(=O)n(-c2cc(NS(=O)(=O)C(F)(F)F)c(C)cc2C)n1 .
Found: 0
